All values here come from BindingDB's records for doi:10.1016/s0960-894x(03)00461-x.

Biological target: Cyclin-dependent kinase 2/G1/S-specific cyclin-E1 (Homo sapiens, UniProt P24941)
pIC50: −log10 of the molar value.

{"smiles-text": "CCc1ccc2c(c1)[nH]c1c3ccc4ccn(C)c4c3c3c(c21)C(=O)NC3=O", "test-target": "Cyclin-dependent kinase 2/G1/S-specific cyclin-E1 (Homo sapiens, UniProt P24941)", "pIC50": 6.44}

---

Molecular target: Calcium/calmodulin-dependent protein kinase type II subunit alpha (Rattus norvegicus)
Sequence (P11275 whole entry): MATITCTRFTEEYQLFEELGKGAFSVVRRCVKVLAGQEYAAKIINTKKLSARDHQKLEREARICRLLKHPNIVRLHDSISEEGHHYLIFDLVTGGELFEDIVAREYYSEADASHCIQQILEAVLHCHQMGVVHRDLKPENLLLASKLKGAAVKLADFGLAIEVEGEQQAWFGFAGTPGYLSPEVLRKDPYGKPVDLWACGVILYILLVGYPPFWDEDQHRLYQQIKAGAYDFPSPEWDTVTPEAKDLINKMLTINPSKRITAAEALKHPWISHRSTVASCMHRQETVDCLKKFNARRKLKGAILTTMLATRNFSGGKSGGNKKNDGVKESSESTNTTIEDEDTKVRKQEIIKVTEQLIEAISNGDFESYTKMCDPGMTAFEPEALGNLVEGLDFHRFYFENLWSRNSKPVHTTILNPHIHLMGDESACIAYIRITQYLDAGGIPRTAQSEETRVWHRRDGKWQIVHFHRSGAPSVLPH
Assay: CDK Kinase Inhibition Assay
Conditions: 25 °C
pIC50: −log10 of the molar value.
readout-name: pIC50

{"smiles-text": "COc1ccc2c3c4c(c5c(ccc6ccn(C)c65)c3n(CCCN3CCSCC3)c2c1)C(=O)NC4=O", "readout-name": "pIC50", "observed-measurement": "< 4.70"}
{"smiles-text": "COc1ccc2c3c4c(c5c(ccc6ccn(C)c65)c3n(CCN3CCCCC3)c2c1)C(=O)NC4=O", "readout-name": "pIC50", "observed-measurement": "< 4.70"}
{"smiles-text": "COc1ccc2c3c4c(c5c(ccc6ccn(C)c65)c3n(CCCN3CCOCC3)c2c1)C(=O)NC4=O", "readout-name": "pIC50", "observed-measurement": "< 4.70"}
